Biological target: Man(a1-3)[Man(a1-6)]Man(a1-6)[Man(a1-2)Man(a1-3)]Man(b1-4)GlcNAc(b1-4)GlcNAc
Test: glycan array binding signal (z-score within array); higher = stronger binding
Settings: glycan notation: IUPAC condensed, linker removed
This is one part of a sample in which the strongest signals are shown more often than they occur.
measured property: glycan array binding signal (z-score)
# answer = number (no unit)

binder	glycan array binding signal (z-score)
SP16665A-bot-344-23-344 (Bacteroides ovatus) (protein) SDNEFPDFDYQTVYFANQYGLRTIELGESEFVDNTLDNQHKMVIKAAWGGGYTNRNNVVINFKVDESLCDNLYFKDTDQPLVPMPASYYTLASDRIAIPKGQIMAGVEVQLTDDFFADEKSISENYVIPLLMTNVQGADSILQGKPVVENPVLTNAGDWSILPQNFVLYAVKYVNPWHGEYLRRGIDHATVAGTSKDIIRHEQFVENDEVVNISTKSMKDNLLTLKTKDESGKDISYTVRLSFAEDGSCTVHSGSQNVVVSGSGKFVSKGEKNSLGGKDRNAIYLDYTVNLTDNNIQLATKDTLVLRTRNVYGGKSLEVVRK	0.003

Sample HHA (Hippeastrum hybrid) (protein) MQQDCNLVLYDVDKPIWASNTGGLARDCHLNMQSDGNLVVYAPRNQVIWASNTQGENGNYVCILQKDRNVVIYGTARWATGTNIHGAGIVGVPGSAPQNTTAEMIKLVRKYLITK — what was its glycan array binding signal (z-score)?
5.57

Please answer likewise for Regenerating Gene I (Homo sapiens), P05451 (protein) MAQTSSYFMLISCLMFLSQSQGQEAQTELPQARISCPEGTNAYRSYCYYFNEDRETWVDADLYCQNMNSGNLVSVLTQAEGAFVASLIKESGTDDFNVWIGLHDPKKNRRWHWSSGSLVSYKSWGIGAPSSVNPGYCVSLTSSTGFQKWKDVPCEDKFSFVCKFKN
-0.594

Please answer likewise for ABA (Agaricus bisporus), Q00022 (protein) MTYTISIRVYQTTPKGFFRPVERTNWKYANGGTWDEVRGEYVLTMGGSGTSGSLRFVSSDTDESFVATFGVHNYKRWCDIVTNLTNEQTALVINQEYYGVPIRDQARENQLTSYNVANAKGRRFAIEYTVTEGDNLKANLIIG
2.82

Please answer likewise for Ficolin B (Rattus norvegicus), P57756 (protein) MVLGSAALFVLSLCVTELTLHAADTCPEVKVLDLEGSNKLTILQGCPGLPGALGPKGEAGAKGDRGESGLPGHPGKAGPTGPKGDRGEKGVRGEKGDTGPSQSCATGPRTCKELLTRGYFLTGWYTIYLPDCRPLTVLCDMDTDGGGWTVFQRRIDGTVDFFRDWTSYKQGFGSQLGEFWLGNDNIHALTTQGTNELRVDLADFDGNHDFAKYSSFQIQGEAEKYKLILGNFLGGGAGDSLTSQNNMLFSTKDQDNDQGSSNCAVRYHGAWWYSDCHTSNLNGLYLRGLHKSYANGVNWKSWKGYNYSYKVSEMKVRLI
-0.182
